Measured Nutsedge, Yellow plant response rating values are reported for all entries that follow.
system: yellow nutsedge; experiment: Test C pre-/postemergence test; format: in vivo, Cyperus esculentus; conditions: preemergence, 125 g ai/ha; scale 0 (no effect) to 100 (complete control)
Answer as a number with no unit attached.

Recorded results for 5 compounds are shown here.
Cc1cc[n+]([O-])c([S+]([O-])Cc2c(C(F)(F)F)nn(C)c2OC(F)F)c1 (stereo not drawn) : 100
Cn1nc(C(F)(F)F)c(C[S+]([O-])c2cccc[n+]2[O-])c1OC(F)F (stereo not drawn) : 100
Cn1nc(C(F)(F)F)c(C[S+]([O-])c2ccc(Cl)c[n+]2[O-])c1OC(F)F (stereo not drawn) : 80
Cn1nc(C(F)(F)F)c(CS(=O)(=O)c2ccc(Cl)c[n+]2[O-])c1OC(F)F : 98
CC(c1c(C(F)(F)F)nn(C)c1Cl)S(=O)(=O)c1cccc[n+]1[O-] (stereo not drawn) : 98

// moving on: another record for Nutsedge, Yellow plant response rating
*Q* Hello, please tell me recorded Nutsedge, Yellow plant response rating for this one: Cn1nc(C(F)(F)F)c(CS(=O)(=O)c2cccc[n+]2[O-])c1OC(F)F
*A* 100
